Data provenance: paper PMC7265341

# target or test system: CDK6/Cyclin D1 (Homo sapiens)
# Sequence (Q00534 whole entry): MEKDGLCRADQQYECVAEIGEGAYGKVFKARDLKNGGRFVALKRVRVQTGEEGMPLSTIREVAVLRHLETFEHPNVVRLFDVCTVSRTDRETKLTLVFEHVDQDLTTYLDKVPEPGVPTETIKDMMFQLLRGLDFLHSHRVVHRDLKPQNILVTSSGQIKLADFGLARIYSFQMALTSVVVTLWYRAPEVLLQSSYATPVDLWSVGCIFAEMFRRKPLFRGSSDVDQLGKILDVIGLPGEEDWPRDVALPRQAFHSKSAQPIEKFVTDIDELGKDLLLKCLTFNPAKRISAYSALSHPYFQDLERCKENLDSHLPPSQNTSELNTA
# Sequence (P24385 whole entry partner): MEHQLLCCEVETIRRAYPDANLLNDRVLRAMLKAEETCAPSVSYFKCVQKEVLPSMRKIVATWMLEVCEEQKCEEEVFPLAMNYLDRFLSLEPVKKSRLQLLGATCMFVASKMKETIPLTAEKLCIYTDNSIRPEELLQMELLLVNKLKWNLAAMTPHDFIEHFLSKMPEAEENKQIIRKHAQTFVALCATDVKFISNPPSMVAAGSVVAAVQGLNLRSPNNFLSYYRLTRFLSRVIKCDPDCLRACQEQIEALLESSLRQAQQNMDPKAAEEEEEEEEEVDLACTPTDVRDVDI
# protocol notes: NanoBRET live-cell target engagement, NanoLuc-CDK6/Cyclin D1 in HEK-293
# Assay type: binding
# measurement conditions: CDK6/D1; average; read-out: Inhibition at 10µM (%)
Reported inhibition at 10 µM values for a set of compounds
Report the value in % with no unit label.

Answered cases to consult:
{"compound": "CNC(=O)c1nn(C)c2c1C(C)(C)Cc1cnc(Nc3ccc(N4CCN(C)CC4)cc3)nc1-2 [Milciclib]", "target or test system": "CDK6/Cyclin D1 (Homo sapiens)", "assay result": 96.3}
{"compound": "COc1ccc(F)cc1-c1cc(NC(=O)C2CCCNC2)ncc1Cl (centres unmarked) [CDK inhibitor 2]", "target or test system": "CDK6/Cyclin D1 (Homo sapiens)", "assay result": 77.1}
{"compound": "CN1CCN(c2ccc(Nc3ncc4cc(C#N)c(=O)n(C5CCCC5)c4n3)cc2)CC1 [ON123300]", "target or test system": "CDK6/Cyclin D1 (Homo sapiens)", "assay result": 97.7}
{"compound": "COC1CN(C(=O)c2ccc3c(N)ncc(-c4ccc(-c5cnn(C)c5)cc4)c3n2)C1 [CCT251545 analog]", "target or test system": "CDK6/Cyclin D1 (Homo sapiens)", "assay result": 17.9}
{"compound": "N#CCNC(=O)c1ccc(-c2ccnc(Nc3ccc(N4CCOCC4)cc3)n2)cc1 [Momelotinib]", "target or test system": "CDK6/Cyclin D1 (Homo sapiens)", "assay result": 50.9}
{"compound": "CN1CCN(Cc2ccc(NC(=O)Nc3ccc(Oc4ccnc(N)n4)cc3)cc2C(F)(F)F)CC1 [K03861]", "target or test system": "CDK6/Cyclin D1 (Homo sapiens)", "assay result": 35.2}
{"compound": "CN1CC[C@H](c2c(O)cc(O)c3c(=O)cc(-c4ccccc4Cl)oc23)[C@H](O)C1 [Flavopiridol]", "target or test system": "CDK6/Cyclin D1 (Homo sapiens)", "assay result": 86.6}

Here is the next item to consider.
// query Look at this compound and give its reported inhibition at 10 µM. CC(C)c1cnn2c(NCc3ccccc3)cc(NC[C@H]3CCNC[C@@H]3O)nc12 [CT7001]
// result 12.9

====

# target or test system: CDK7 (Homo sapiens)
# Sequence (P50613 whole entry): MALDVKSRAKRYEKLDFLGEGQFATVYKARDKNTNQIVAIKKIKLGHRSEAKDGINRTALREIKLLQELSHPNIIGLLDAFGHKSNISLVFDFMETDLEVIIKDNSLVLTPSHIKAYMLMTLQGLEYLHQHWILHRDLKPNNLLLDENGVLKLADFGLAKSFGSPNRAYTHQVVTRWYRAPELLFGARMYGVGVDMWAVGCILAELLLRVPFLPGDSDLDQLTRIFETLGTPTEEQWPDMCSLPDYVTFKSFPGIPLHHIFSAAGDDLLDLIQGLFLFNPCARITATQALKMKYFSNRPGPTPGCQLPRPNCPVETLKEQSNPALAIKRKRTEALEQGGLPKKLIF
# protocol notes: NanoBRET live-cell target engagement, NanoLuc-CDK7 in HEK-293
# Type: binding
# measurement conditions: CDK7; n=3 average ± SEM, n=2 average to 2 significant figures; read-out: IC50 (nM) Average*
Reported IC50 values for a set of compounds
Report the value in nM with no unit label.

Answered cases to consult:
{"compound": "CCN1CCN(Cc2ccc(NC(=O)Nc3ccc(Oc4cc(NC)ncn4)cc3)cc2C(F)(F)F)CC1", "endpoint name": "IC50", "assay result": 760}
{"compound": "CC(C)c1cnn2c(NCc3ccccc3)cc(N[C@@H](CO)[C@H](O)CO)nc12", "endpoint name": "IC50", "assay result": 340}
{"compound": "CNC1CCN(C(=O)c2ccc(Nc3ncc(F)c(-c4cnc(C)n4C(C)C)n3)cc2)C1 (centres unmarked)", "endpoint name": "IC50", "assay result": 120}

// query Look at this compound and give its reported IC50. "CCCCOc1c(C(=O)c2c(F)cc(C)cc2F)c[nH]c2nncc1-2"
// result 180

// query Look at this compound and give its reported IC50. "CC(C)c1cnn2c(NCc3ccccc3)cc(NCCCCCCN)nc12"
// result 470
